Tested on: VAL (B-Cell Non-Hodgkin's Lymphoma)
Assay remarks: combination Emax (second highest fraction inhibited in the dose matrix, 72 h); higher = more inhibition; extreme values may be limits of the assay
Form field: combination Emax (one value per entry).
Parameter measured: combination Emax

CN(CCO)CC[C@H](CSc1ccccc1)Nc1ccc(S(=O)(=O)NC(=O)c2ccc(N3CCC([C@@H](O)c4ccccc4-c4ccc(Cl)cc4)CC3)cc2)cc1S(=O)(=O)C(F)(F)F [AZD4320] + CN(C)CCCOc1ccc(-c2ccc3ncc4c(c3c2)n(C2CCOCC2)c(=O)n4C)cn1 [AZD0156] (first compound max 1 µM, 7x7, partner max 1 µM)
1
Cc1c2c(nn1C)CSCc1cc(n(C)n1)CSc1cc(c3ccccc3c1)OCCCc1c(C(=O)O)n(C)c3c-2c(Cl)ccc13 [AZD5991] + CS(=O)(=O)CCNCc1ccc(-c2ccc3ncnc(Nc4ccc(OCc5cccc(F)c5)c(Cl)c4)c3c2)o1 [Lapatinib] (first compound max 1 µM, 7x7, partner max 10 µM)
0.677
N#Cc1cnc(Nc2cc(NC[C@H]3CNCCO3)c(C(F)(F)F)cn2)cn1 [SRA737] + CCc1c2c(nc3ccc(O)cc13)-c1cc3c(c(=O)n1C2)COC(=O)[C@]3(O)CC [SN-38] (first compound max 10 µM, 7x7, partner max 0.3 µM)
0.947
CC1(C)CCC(CN2CCN(c3ccc(C(=O)NS(=O)(=O)c4ccc(NCC5CCOCC5)c([N+](=O)[O-])c4)c(Oc4cnc5[nH]ccc5c4)c3)CC2)=C(c2ccc(Cl)cc2)C1 [Venetoclax] + CS(=O)(=O)CCNCc1ccc(-c2ccc3ncnc(Nc4ccc(OCc5cccc(F)c5)c(Cl)c4)c3c2)o1 [Lapatinib] (first compound max 1 µM, 7x7, partner max 10 µM)
1
Cc1nc(Nc2ncc(C(=O)Nc3c(C)cccc3Cl)s2)cc(N2CCN(CCO)CC2)n1 [Dasatinib] + CC(=O)Nc1cccc(-n2c(=O)n(C3CC3)c(=O)c3c(Nc4ccc(I)cc4F)n(C)c(=O)c(C)c32)c1 [Trametinib] (first compound max 2 µM, 7x7, partner max 1 µM)
0.691
CN(CCO)CC[C@H](CSc1ccccc1)Nc1ccc(S(=O)(=O)NC(=O)c2ccc(N3CCC([C@@H](O)c4ccccc4-c4ccc(Cl)cc4)CC3)cc2)cc1S(=O)(=O)C(F)(F)F [AZD4320] + C[C@@H](Nc1cc(F)cc(F)c1)c1cc(C(=O)N(C)C)cc2c(=O)cc(N3CCOCC3)oc12 [AZD8186] (first compound max 1 µM, 7x7, partner max 3 µM)
1
C=CCn1c(=O)c2cnc(Nc3ccc(N4CCN(C)CC4)cc3)nc2n1-c1cccc(C(C)(C)O)n1 [AZD1775] + C[C@@H]1COCCN1C2=NC(=NC(=C2)C3(CC3)[S@](=N)(=O)C)C4=C5C=CNC5=NC=C4 [AZD6738] (first compound max 1 µM, partner max 10 µM)
0.881
